Experiment Summary: Plasma protein binding in rat by equilibrium dialysis method
Assay type: ADME, cell-free
Conditions: read-out: PPB (converted)
Classify by fraction unbound. Ranges: bottom = under 0.01, middle = from 0.01 up to 0.07, top = 0.07 and over

{"Compound": "N#CC1(c2ccccc2)CCN(Cc2cc3c(c4ccccc24)CN([C@H]2CCCC[C@@H]2O)C3=O)CC1", "Label Value": "bottom"}
{"Compound": "N#CC1(c2ccccn2)CCN(Cc2cc3c(c4ccccc24)CN([C@H]2CCCC[C@@H]2O)C3=O)CC1", "Label Value": "middle"}
{"Compound": "N#CC1(c2cnccn2)CCN(Cc2cc3c(c4ccccc24)CN([C@H]2CCCC[C@@H]2O)C3=O)CC1", "Label Value": "top"}
{"Compound": "O=C1c2cc(CN3CCC(F)(c4ccccn4)CC3)c3ccccc3c2CN1[C@H]1CCCC[C@@H]1O", "Label Value": "middle"}
{"Compound": "Cc1ccnc(C2(C#N)CCN(Cc3cc4c(c5ccccc35)CN([C@H]3CCCC[C@@H]3O)C4=O)CC2)c1", "Label Value": "bottom"}
{"Compound": "N#CC1(c2cccnn2)CCN(Cc2cc3c(c4ccccc24)CN([C@H]2CCCC[C@@H]2O)C3=O)CC1", "Label Value": "top"}
{"Compound": "CC1c2c(cc(CN3CCC(C#N)(c4ccccn4)CC3)c3ccccc23)C(=O)N1[C@H]1CCCC[C@@H]1O (mixture of isomers)", "Label Value": "middle"}

Data provenance is ChEMBL document CHEMBL3297692.
